# ASSAY_DETAILS: Dynamic SPECT imaging and biological distribution in dogs after intravenous injection
# Format: in vivo
# CONDITIONS: 2 Minutes
READOUT_LABEL: Target/Non-Target Uptake Ratio Heart/Kidneys
Give your answer as a number; write no unit.

Enquiry: Let me know recorded Target/Non-Target Uptake Ratio Heart/Kidneys for [C-]#[N+]CC(C)(C)OC.[C-]#[N+]CC(C)(C)OC.[C-]#[N+]CC(C)(C)OC.[C-]#[N+]CC(C)(C)OC.[C-]#[N+]CC(C)(C)OC.[C-]#[N+]CC(C)(C)OC.[Tc] [[^99mTc(MIBI)6]^+, reference compound] , thanks.
Return: 0.39

Enquiry: Let me know recorded Target/Non-Target Uptake Ratio Heart/Kidneys for COC(C)(C)CN=[C]=[99Tc+](=[C]=O)(=[C]=O)(=[C]=O)(=[C]=NCC(C)(C)OC)=[C]=NCC(C)(C)OC [[^99mTc(CO)3(MIBI)3]^+] , thanks.
Return: 0.56

---

# ASSAY_DETAILS: Dynamic SPECT imaging and biological distribution in dogs after intravenous injection
# Format: in vivo
# CONDITIONS: 90 Minutes
Overview of reported Target/Non-Target Uptake Ratio Heart/Liver across a group of compounds:
Give your answer as a number; write no unit.

[[record]]
compound = "[C-]#[N+]CC(C)(C)OC.[C-]#[N+]CC(C)(C)OC.[C-]#[N+]CC(C)(C)OC.[C-]#[N+]CC(C)(C)OC.[C-]#[N+]CC(C)(C)OC.[C-]#[N+]CC(C)(C)OC.[Tc] [[^99mTc(MIBI)6]^+, reference compound]"
test_value = 0.8


Enquiry: Let me know recorded Target/Non-Target Uptake Ratio Heart/Liver for COC(C)(C)CN=[C]=[99Tc+](=[C]=O)(=[C]=O)(=[C]=O)(=[C]=NCC(C)(C)OC)=[C]=NCC(C)(C)OC [[^99mTc(CO)3(MIBI)3]^+] , thanks.
Return: 1.25

---

# ASSAY_DETAILS: Dynamic SPECT imaging and biological distribution in dogs after intravenous injection
# Format: in vivo
# CONDITIONS: 5 Minutes
Overview of reported Target/Non-Target Uptake Ratio Heart/Liver across a group of molecules:
Give your answer as a number; write no unit.

Enquiry: Let me know recorded Target/Non-Target Uptake Ratio Heart/Liver for [C-]#[N+]CC(C)(C)OC.[C-]#[N+]CC(C)(C)OC.[C-]#[N+]CC(C)(C)OC.[C-]#[N+]CC(C)(C)OC.[C-]#[N+]CC(C)(C)OC.[C-]#[N+]CC(C)(C)OC.[Tc] [[^99mTc(MIBI)6]^+, reference compound] , thanks.
Return: 0.83

Enquiry: Let me know recorded Target/Non-Target Uptake Ratio Heart/Liver for COC(C)(C)CN=[C]=[99Tc+](=[C]=O)(=[C]=O)(=[C]=O)(=[C]=NCC(C)(C)OC)=[C]=NCC(C)(C)OC [[^99mTc(CO)3(MIBI)3]^+] , thanks.
Return: 0.98

---

# ASSAY_DETAILS: Dynamic SPECT imaging and biological distribution in dogs after intravenous injection
# Assay type: in vivo
# CONDITIONS: 10 Minutes
# Experimental: Dogs were intravenously injected with [^99mTc(CO)3(MIBI)3]^+ or [^99mTc(MIBI)6][…]at dose of 5.55×10^5 Bq. […] Time—radioactivity curves were also collected for the heart, liver, lungs, and kidneys. Target/non-target radioactivity ratios were calculated, and fall body imaging was performed separately at different times. The biological distributions of the imaging agents in the body were analyzed. […]
Overview of reported Target/Non-Target Uptake Ratio Heart/Lungs across a group of compounds:
Give your answer as a number; write no unit.

[[record]]
compound = "COC(C)(C)CN=[C]=[99Tc+](=[C]=O)(=[C]=O)(=[C]=O)(=[C]=NCC(C)(C)OC)=[C]=NCC(C)(C)OC [[^99mTc(CO)3(MIBI)3]^+]"
test_value = 2.6


Now for a further compound.
Enquiry: Let me know recorded Target/Non-Target Uptake Ratio Heart/Lungs for [C-]#[N+]CC(C)(C)OC.[C-]#[N+]CC(C)(C)OC.[C-]#[N+]CC(C)(C)OC.[C-]#[N+]CC(C)(C)OC.[C-]#[N+]CC(C)(C)OC.[C-]#[N+]CC(C)(C)OC.[Tc] [[^99mTc(MIBI)6]^+, reference compound] , thanks.
Return: 2.66
